Field: TGI. Provide a value for each of the compounds that follow.
Test system: MDA-MB-468 breast
measurement.notes: NCI tumour cell line growth inhibition, 48 h
*1 amine or outer side, *2 acyl side, *3 side chain or, on linkers, in order; H or OH if unused. Where a SMILES comes first, the peptide text is derived from it. [ ]: non-standard residue; d: D form. ξ: configuration not given here. X21 = CC[C@@H](C)C(N[*:1])C(=O)[*:2]; ξR = N=C(N)NCCCC(N)C(=O)O; ξI = CCC(C)C(N)C(=O)O; ξL = CC(C)CC(N)C(=O)O; ξK = NCCCCC(N)C(=O)O; ξV = CC(C)C(N)C(=O)O; ξA = CC(N)C(=O)O
The reply should be a number in nM, with the unit left off.

Inquiry: Please look up its TGI: Clc1ccc(Nc2ccnc(NCCCNc3ccnc4cc(Cl)ccc34)n2)cc1
Reply text: 3050

Inquiry: Would you kindly repeat that for CCOC(=O)c1cc(C(=O)c2cc(OC)c(OC)c(OC)c2)n2ccccc12 ?
Reply text: 89600

Inquiry: Would you kindly repeat that for CN(C)CCCn1c2nc(=O)[nH]c(=O)c-2nc2cc(Cl)c(Cl)cc21 ?
Reply text: 2130

Inquiry: Would you kindly repeat that for CCCN(CCSSCCNc1nc(N(C)O)nc(N(C)O)n1)c1nc(N(C)O)nc(N(C)O)n1 ?
Reply text: 8860

Inquiry: Would you kindly repeat that for COc1ccccc1/C=C/C(=O)/C=C/c1ccccc1OC ?
Reply text: 2670

Inquiry: Would you kindly repeat that for CCC(C)C1NC(=O)C(CC(C)C)NC(=O)C(C)NC(=O)C(C(C)C)NC(=O)C(CCCCN)NC(=O)C(CC(C)C)NC(=O)C(C(C)C)NC(=O)[C@H](C)NC(=O)C(C(C)CC)NC(=O)C(CCCN=C(N)N)NC(=O)C(CCCCN)NC(=O)C(CCCN=C(N)N)NC(=O)C(CCCCN)NC(=O)C([C@H](C)CC)NC(=O)C(CCCCN)NC1=O (stereo not given in full) (cyclo(A[ξV][ξL][ξK][ξV][ξA][ξL][ξI][ξK][X21][ξK][ξR][ξK][ξR][ξI])) ?
Reply text: 1420

Inquiry: Would you kindly repeat that for CNCCCNCCCN1C(=O)c2ccc3c4c(ccc(c24)C1=O)C(=O)N(CCCNCc1ccccc1OC)C3=O ?
Reply text: 2770

Inquiry: Would you kindly repeat that for O=C(Nc1cccc(-n2cc(-c3ccncc3)c(-c3ccc(O)c(Cl)c3)n2)c1)Nc1cccc(C(F)(F)F)c1 ?
Reply text: 6170

Inquiry: Would you kindly repeat that for C=C1C(=O)O[C@H]2[C@H]1CC/C(Cn1cc(-c3cc(C)c(C)cc3C)nn1)=C\CC[C@@]1(C)O[C@@H]21 ?
Reply text: 2060

---

System: MDA-MB-468 breast
measurement.notes: NCI tumour cell line growth inhibition, 48 h; in the data active = GI50 below about 0.43 µM; inactive = the rest
Choose the fitting class; nothing outside active, inactive is accepted.

Inquiry: Which outcome was assigned to CN(C)CCCn1c2nc(=O)[nH]c(=O)c-2nc2cc(Cl)c(Cl)cc21 in this test?
Reply text: inactive

Inquiry: Would you kindly repeat that for CCOC(=O)Nc1nc2c(C)cccc2s1 ?
Reply text: inactive

Inquiry: Would you kindly repeat that for Cc1ccc(Sc2sc(-c3ccccc3)nc2[P+](c2ccccc2)(c2ccccc2)c2ccccc2)cc1 ?
Reply text: active

Inquiry: Would you kindly repeat that for Nc1ncnc2c1cnn2Cc1ccc(Cl)cc1 ?
Reply text: inactive

Reference for the values: PubChem BioAssay (NCI)
